Can you tell me normalized RNA/DNA level without ligand (log10) for the items I'm about to list?
B1: library; a variant is named by its letters at N, in order (parent)
chain: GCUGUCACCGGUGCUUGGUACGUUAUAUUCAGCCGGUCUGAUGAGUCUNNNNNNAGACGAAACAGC

# Variants of: B1
# EXPERIMENT SUMMARY: normalized RNA/DNA level without ligand (relative to sTRSVctl = 100) (log10 (% of sTRSVctl)); HEK293T overexpressing SLC46A1; higher = less ribozyme self-cleavage, higher mRNA level
# SETUP CONDITIONS: without (6R,S)-folinic acid; ligand present: no

Exam item: Consider the variant shown here: `AUUCUU` What is its recorded normalized RNA/DNA level without ligand (log10)?
Marked response: 2.02

Exam item: Entry `ACCAGA` : reported normalized RNA/DNA level without ligand (log10) = ?
Marked response: 2.02

Exam item: GET /values?readout=normalized RNA/DNA level without ligand (log10)&item= `AAUUCU`
Marked response: 2.03

Exam item: Data request, read-out normalized RNA/DNA level without ligand (log10), for `CAACUG`
Marked response: 2.03

Exam item: Would you mind telling me what normalized RNA/DNA level without ligand (log10) value was observed for `UAAUCA` ?
Marked response: 1.95

Exam item: Report normalized RNA/DNA level without ligand (log10) for `CGCUGA` please.
Marked response: 2.08

Exam item: normalized RNA/DNA level without ligand (log10) lookup needed for `UCGCAA` , thanks.
Marked response: 1.97

Exam item: Entry under review: `GGAAAC` . Reported normalized RNA/DNA level without ligand (log10)?
Marked response: 2.02

Exam item: # lookup: normalized RNA/DNA level without ligand (log10) of `UGCGGU`
Marked response: 1.98

Exam item: Need normalized RNA/DNA level without ligand (log10), item `CACUGG`
Marked response: 1.96

Exam item: Find the recorded normalized RNA/DNA level without ligand (log10) belonging to `UGUUGA` and report it.
Marked response: 1.84

Exam item: Fill in: normalized RNA/DNA level without ligand (log10) of `GCUGGG` is ___
Marked response: 1.98

Exam item: Looking for the measured normalized RNA/DNA level without ligand (log10) of `AUGGGA` , can you help?
Marked response: 1.92

Exam item: Could you tell me which normalized RNA/DNA level without ligand (log10) is on file for `GGCUCC` ?
Marked response: 2.03

Exam item: # input variant: `GCAAUU` ; wanted: its normalized RNA/DNA level without ligand (log10)
Marked response: 2.04

Exam item: # input variant: `UGCCGA` ; wanted: its normalized RNA/DNA level without ligand (log10)
Marked response: 1.95

Exam item: I'd like to know its normalized RNA/DNA level without ligand (log10). The variant in question is `UUUAGG`
Marked response: 1.88

Exam item: Which normalized RNA/DNA level without ligand (log10) is listed for `ACCGCC` ?
Marked response: 2.05

Exam item: I am curious: what normalized RNA/DNA level without ligand (log10) value has been reported for `CAGGAA` ?
Marked response: 1.93

Exam item: Need normalized RNA/DNA level without ligand (log10), item `CCUACC`
Marked response: 2.06

Exam item: Which normalized RNA/DNA level without ligand (log10) reading was recorded for the variant `UCCAAG` ?
Marked response: 1.82

Exam item: I have this variant here, `GCUUCC` , and I need its recorded normalized RNA/DNA level without ligand (log10).
Marked response: 2.03

Exam item: I am curious: what normalized RNA/DNA level without ligand (log10) value has been reported for `CGGUAU` ?
Marked response: 1.98

Exam item: Could you share which normalized RNA/DNA level without ligand (log10) value was measured for `GAAAGU` ?
Marked response: 1.98

Exam item: Entry `AAAGAG` has what normalized RNA/DNA level without ligand (log10)?
Marked response: 1.62

Exam item: I would be grateful if you could share the reported normalized RNA/DNA level without ligand (log10) for `UCGGCA` .
Marked response: 2.03

Exam item: I'd like to know its normalized RNA/DNA level without ligand (log10). The variant in question is `CAACCA`
Marked response: 2.03

Exam item: I am curious: what normalized RNA/DNA level without ligand (log10) value has been reported for `AUAGCG` ?
Marked response: 1.66

Exam item: Item `CCAUAC` has what recorded normalized RNA/DNA level without ligand (log10)?
Marked response: 1.99

Exam item: For the variant `AUAACG` , what normalized RNA/DNA level without ligand (log10) is on record?
Marked response: 1.95

Exam item: // normalized RNA/DNA level without ligand (log10) lookup, key: `GCGAUC`
Marked response: 2.04

Exam item: Query (variant): `ACAGCC` ; field requested: normalized RNA/DNA level without ligand (log10)
Marked response: 2.03

Exam item: Can you share its normalized RNA/DNA level without ligand (log10)? I mean this variant: `GUUCGU`
Marked response: 2

Exam item: Recorded normalized RNA/DNA level without ligand (log10) for `AUUGUC` , please?
Marked response: 2.06
